system under test: Histone deacetylase 8 (Homo sapiens, UniProt Q9BY41)
Sequence (Q9BY41 whole entry): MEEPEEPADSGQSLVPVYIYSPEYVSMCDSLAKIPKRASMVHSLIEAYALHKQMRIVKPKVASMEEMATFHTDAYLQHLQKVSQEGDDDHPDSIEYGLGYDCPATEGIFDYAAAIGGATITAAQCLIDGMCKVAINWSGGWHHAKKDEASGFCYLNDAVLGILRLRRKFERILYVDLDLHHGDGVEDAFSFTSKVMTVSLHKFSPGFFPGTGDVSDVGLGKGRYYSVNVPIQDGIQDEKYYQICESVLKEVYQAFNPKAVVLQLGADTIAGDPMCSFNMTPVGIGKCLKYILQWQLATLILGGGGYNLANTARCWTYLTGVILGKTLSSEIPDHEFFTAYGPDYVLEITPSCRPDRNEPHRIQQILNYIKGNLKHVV
pIC50: −log10 of the molar value.
quantity: pIC50

Identify the measured pIC50 of `COC(=O)CCCCN1C(=O)[C@H](CC(C)C)N=C(c2ccccc2)c2ccccc21` for Histone deacetylase 8 (Homo sapiens, UniProt Q9BY41).
< 4.52

Identify the measured pIC50 of `COC(=O)CCCCN1C(=O)[C@H](COC(C)(C)C)N=C(c2ccccc2)c2ccccc21` for Histone deacetylase 8 (Homo sapiens, UniProt Q9BY41).
< 4.52

Identify the measured pIC50 of `CC(C)(C)OC[C@@H]1N=C(c2ccccc2)c2ccccc2NC1=O` for Histone deacetylase 8 (Homo sapiens, UniProt Q9BY41).
< 4.52

Identify the measured pIC50 of `O=C(CCCCN1C(=O)[C@H](Cc2cncn2C(c2ccccc2)(c2ccccc2)c2ccccc2)N=C(c2ccccc2)c2ccccc21)NO` for Histone deacetylase 8 (Homo sapiens, UniProt Q9BY41).
< 4.52

Identify the measured pIC50 of `CC(C)(C)OC(=O)NCCCC[C@@H]1N=C(c2ccccc2)c2ccccc2N(CCCCC(=O)O)C1=O` for Histone deacetylase 8 (Homo sapiens, UniProt Q9BY41).
< 4.52

Identify the measured pIC50 of `COC(=O)CCCCN1C(=O)[C@H](CCCNC(=N)NS(=O)(=O)c2c(C)c(C)c3c(c2C)CC(C)(C)O3)N=C(c2ccccc2)c2ccccc21` for Histone deacetylase 8 (Homo sapiens, UniProt Q9BY41).
< 4.52

Identify the measured pIC50 of `O=C(CCCCN1C(=O)[C@H](CCC(=O)NC(c2ccccc2)(c2ccccc2)c2ccccc2)N=C(c2ccccc2)c2ccccc21)NO` for Histone deacetylase 8 (Homo sapiens, UniProt Q9BY41).
4.63

Identify the measured pIC50 of `CC(C)(C)OC(=O)C[C@@H]1N=C(c2ccccc2)c2ccccc2N(CCCCC(=O)NO)C1=O` for Histone deacetylase 8 (Homo sapiens, UniProt Q9BY41).
4.65

Identify the measured pIC50 of `COC(=O)CCCCN1C(=O)CN=C(c2ccccc2)c2ccccc21` for Histone deacetylase 8 (Homo sapiens, UniProt Q9BY41).
< 4.52

====

pIC50: −log10 of the molar value.
In what follows, each item is paired with its pIC50 for UniProt O15379.
Sequence (O15379 whole entry): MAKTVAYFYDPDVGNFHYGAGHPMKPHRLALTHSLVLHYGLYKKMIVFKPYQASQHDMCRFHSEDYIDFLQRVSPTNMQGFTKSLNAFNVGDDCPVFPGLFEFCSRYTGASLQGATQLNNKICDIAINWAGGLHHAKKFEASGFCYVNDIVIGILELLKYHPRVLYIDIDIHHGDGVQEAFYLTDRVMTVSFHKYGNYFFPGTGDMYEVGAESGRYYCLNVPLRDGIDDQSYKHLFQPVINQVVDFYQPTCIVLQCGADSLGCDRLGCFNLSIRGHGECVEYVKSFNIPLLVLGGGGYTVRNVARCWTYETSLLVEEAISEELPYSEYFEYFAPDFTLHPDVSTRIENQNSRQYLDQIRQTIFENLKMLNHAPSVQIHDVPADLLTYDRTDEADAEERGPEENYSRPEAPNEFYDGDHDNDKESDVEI

Requested field: pIC50. Item: `CC(C)(C)OC[C@@H]1N=C(c2ccccc2)c2ccccc2N(CCCCC(=O)O)C1=O`
< 4.52

Requested field: pIC50. Item: `NC(=O)C[C@@H]1N=C(c2ccccc2)c2ccccc2N(CCCCC(=O)NO)C1=O`
5.51

Requested field: pIC50. Item: `CC(C)[C@@H]1N=C(c2ccccc2)c2ccccc2NC1=O`
< 4.52

Requested field: pIC50. Item: `COC(=O)CCCCN1C(=O)[C@H](COC(C)(C)C)N=C(c2ccccc2)c2ccccc21`
< 4.52

Requested field: pIC50. Item: `O=C(C[C@H]1N=C(c2ccccc2)c2ccccc2NC1=O)NO`
< 4.52

Requested field: pIC50. Item: `O=C(CC[C@H]1N=C(c2ccccc2)c2ccccc2NC1=O)NO`
< 4.52

Requested field: pIC50. Item: `O=C(CCCCN1C(=O)CN=C(c2ccccc2)c2ccccc21)NO`
6.18

Requested field: pIC50. Item: `O=C(CC[C@@H]1N=C(c2ccccc2)c2ccccc2NC1=O)NC(c1ccccc1)(c1ccccc1)c1ccccc1`
< 4.52

Requested field: pIC50. Item: `O=C(CCCCN1C(=O)[C@H](CC(=O)NC(c2ccccc2)(c2ccccc2)c2ccccc2)N=C(c2ccccc2)c2ccccc21)NO`
5.37

// provenance: ChEMBL document CHEMBL3997794
